test_method_notes: Selectivity ratio of Ki for NET to IC50 for DAT
observed_property: Ratio
Write the number on its own, no unit after it.

• COC(=O)[C@@H]1C2CCC(C[C@@H]1c1ccc(SC)cc1)N2CCCF (stereo partly drawn) = 9

Q. Please report the recorded Ratio for COC(=O)[C@H]1[C@@H](c2ccc([S+](C)[O-])c(Br)c2)C[C@@H]2CC[C@H]1N2C (stereo partly drawn) .
A. 9
